Hi there, I'd appreciate the recorded Population Normal (%) for every entry that follows.
System: U2OS
TEST PROTOCOL: Multiplex assay against U2OS
Assay type: toxicity, cell-based
CONDITIONS USED: human, 24 h, 1 µM, compound concentration 1 uM, replicate 1
Report the figure in % without appending any unit label.

Inquiry: Give the reported Population Normal (%) for "N#CCNC(=O)c1ccc(-c2ccnc(Nc3ccc(N4CCOCC4)cc3)n2)cc1" (system: U2OS).
Reply text: 96

Inquiry: # query: Population Normal (%) | item CN1C(=O)[C@@H](NC(=O)c2cc3ccccc3[nH]2)N=C(c2ccccc2)c2ccccc21 [DEVAZEPIDE] | system: U2OS
Reply text: 94

Inquiry: Hello, I am looking for reported Population Normal (%) with U2OS for Cl.Cn1c2c(c3ccc(Cl)c(Cl)c31)C(C#N)C1(CCNCC1)NC2=O (stereo not drawn) . Could you help?
Reply text: 98

Inquiry: # returns recorded Population Normal (%) (system: U2OS) for "N#Cc1cccc(C(=O)Nc2cc(-c3ccccc3)nn2-c2ccccc2)c1"
Reply text: 88

Inquiry: Can you look up Population Normal (%) on U2OS for "Cc1ccc(S(=O)(=O)NC2c3ccccc3Oc3ccccc32)cc1" ?
Reply text: 100

Inquiry: What value of Population Normal (%) on U2OS does "C=CC(=O)Nc1cc(-n2c(=O)ccc3cnc4ccc(-c5ccc(NS(C)(=O)=O)cc5)cc4c32)ccc1C" have?
Reply text: 95

Inquiry: Which measured Population Normal (%) belongs to "CN(c1cc(C(F)(F)F)nc(OCCC(=O)O)n1)c1cccc2c1CCC2" , tested on U2OS?
Reply text: 92

Inquiry: Identify the measured Population Normal (%) of "Cc1c(P(=S)(c2ccccc2)c2ccccc2)n2ccccc2[n+]1C/C=C/c1ccccc1.[Br-]" for U2OS.
Reply text: 94

Inquiry: Lab request: please report Population Normal (%) under test system U2OS for "Cl.NC[C@@H]1O[C@H](C23CC4CC(CC(C4)C2)C3)Cc2c1ccc(O)c2O"
Reply text: 92

Inquiry: Short answer please: Population Normal (%), U2OS, entry "CCOC(=O)CCNc1cc(N2CCc3ccccc3CC2)nc(-c2ccccn2)n1"
Reply text: 98

Inquiry: Tell me reported Population Normal (%) for "Cc1c(Nc2ccc(S(=O)(=O)N3CCN(C)CC3)cc2F)nc2ccc(-c3cnn(C4CC4)c3)cn2c1=O" , tested with U2OS.
Reply text: 98

Inquiry: Reported Population Normal (%) for U2OS, given "NC(=O)c1ccc2nc(-c3ccc(C4(N)CCC4)cc3)c(-c3ccccc3)n2n1" ?
Reply text: 94

Inquiry: # value lookup — system U2OS, readout Population Normal (%), item CC(Cc1ccc(O)c(O)c1)C(C)Cc1ccc(O)c(O)c1 (stereo not drawn) [NORDIHYDROGUAIARETIC ACID]
Reply text: 92

Inquiry: Give Population Normal (%) (U2OS) of the following compound: "Cc1c(Nc2ccc(S(=O)(=O)N3CCN(C)CC3)cc2F)nc2ccc(Nc3cnn(C4CC4)c3)cn2c1=O"
Reply text: 98

Inquiry: # value lookup — system U2OS, readout Population Normal (%), item "CC(C)c1cc(Nc2nc(N3CCC[C@H](N)C3)ncc2C(N)=O)cc(C(C)C)n1"
Reply text: 93

Inquiry: Requested read-out Population Normal (%), target or system U2OS, entry "C[C@@H](Oc1cc(-n2cnc3ccc(CN4CCN(C)CC4)cc32)sc1C(N)=O)c1ccccc1C(F)(F)F"
Reply text: 93

Inquiry: // fetch U2OS Population Normal (%) for "CC[C@@H]1C(=O)N(C)c2cnc(Nc3ccc(C(=O)N[C@H]4CC[C@H](N5CCN(CC6CC6)CC5)CC4)cc3OC)nc2N1C(C)C"
Reply text: 94

Inquiry: What Population Normal (%) appears in the records for this compound with U2OS? "CC[C@@H]1C(=O)N(C)c2cnc(Nc3ccc(C(=O)NC4CCN(C)CC4)cc3OC)nc2N1C1CCCC1"
Reply text: 97

----------
Test system: HEK-293T
TEST PROTOCOL: Multiplex assay against HEK293T
Format: toxicity, cell-based
CONDITIONS USED: human, 12 h, 10 µM, compound concentration 10 uM, replicate 1
Would you please tag the item YES when its Population Mitotic Cells (%) is 70% or above, and NO when it is below?

Inquiry: Tell me whether Population Mitotic Cells (%) is at least 70% here: "CCCCN(CC)c1nc(C)nc2c1c(C)cn2-c1c(C)cc(C)cc1C.Cl"
Reply text: NO

Inquiry: I'd appreciate it if you could say whether "Cl.NC[C@@H]1O[C@H](C23CC4CC(CC(C4)C2)C3)Cc2c1ccc(O)c2O" has Population Mitotic Cells (%) at least equal to 70%.
Reply text: NO

Inquiry: Could you tell me if the measured Population Mitotic Cells (%) of CC[C@H](Nc1ncnc2[nH]cnc12)c1nc2cccc(F)c2c(=O)n1-c1ccccc1 [IDELALISIB] reaches 70% or more?
Reply text: YES

Inquiry: Does the molecule CC[C@@]1(O)C(=O)OCc2c1cc1n(c2=O)Cc2cc3ccccc3nc2-1 [CAMPTOTHECIN] have recorded Population Mitotic Cells (%) that is 70% or more?
Reply text: YES

Inquiry: // inclusive: Population Mitotic Cells (%) at least 70%? input: "Cc1c(P(=S)(c2ccccc2)c2ccccc2)n2ccccc2[n+]1C/C=C/c1ccccc1.[Br-]"
Reply text: NO

Inquiry: I'd appreciate it if you could say whether "Cc1c(Nc2ccc(S(=O)(=O)N3CCN(C)CC3)cc2F)nc2ccc(Nc3cnn(C4CC4)c3)cn2c1=O" has Population Mitotic Cells (%) at least equal to 70%.
Reply text: YES

Inquiry: Could you verify whether the entry "CCCc1cc(C)[nH]c(=O)c1CNC(=O)c1cc(-c2ccc(N3CCN(C(C)C)CC3)nc2)cc2c1cnn2C(C)C" shows Population Mitotic Cells (%) of no less than 70%?
Reply text: NO

Inquiry: Check if Population Mitotic Cells (%) >= 70% (inclusive). Item: N#CCNC(=O)c1ccc(-c2ccnc(Nc3ccc(N4CCOCC4)cc3)n2)cc1 [MOMELOTINIB]
Reply text: NO

Inquiry: Threshold query (Population Mitotic Cells (%) >= 70%) on "Cc1ccc(S(=O)(=O)NC2c3ccccc3Oc3ccccc32)cc1"
Reply text: NO

----------
Tested on: U2OS
TEST PROTOCOL: Multiplex assay against U2OS
Assay type: toxicity, cell-based
CONDITIONS USED: human, 24 h, 1 µM, compound concentration 1 uM, replicate 2
I'd be grateful if you could share measured Population Mitotic Cells (%) for these entries.
Quick note: give the figure in %, leave out the unit.

Inquiry: API: value(readout=Population Mitotic Cells (%), system=U2OS) for record "Cl.NC[C@@H]1O[C@H](C23CC4CC(CC(C4)C2)C3)Cc2c1ccc(O)c2O"
Reply text: 57

Inquiry: Record lookup: for U2OS, what Population Mitotic Cells (%) belongs to "Cc1c(P(=S)(c2ccccc2)c2ccccc2)n2ccccc2[n+]1C/C=C/c1ccccc1.[Br-]" ?
Reply text: 25

Inquiry: Which measured Population Mitotic Cells (%) belongs to "C=CC(=O)Nc1cc(-n2c(=O)ccc3cnc4ccc(-c5ccc(NS(C)(=O)=O)cc5)cc4c32)ccc1C" , tested on U2OS?
Reply text: 44

Inquiry: Identify the measured Population Mitotic Cells (%) of "CCCc1cc(C)[nH]c(=O)c1CNC(=O)c1cc(-c2ccc(N3CCN(C(C)C)CC3)nc2)cc2c1cnn2C(C)C" for U2OS.
Reply text: 66

Inquiry: Entry CN1C(=O)[C@@H](NC(=O)c2cc3ccccc3[nH]2)N=C(c2ccccc2)c2ccccc21 [DEVAZEPIDE] , system U2OS: what Population Mitotic Cells (%) was measured?
Reply text: 62

Inquiry: Form: Entry = CC(C)[C@H](CO)Nc1nc(Nc2cccc(Cl)c2)c2ncn(C(C)C)c2n1 [PURVALANOLA] | System = U2OS | Population Mitotic Cells (%) = ____
Reply text: 40

Inquiry: Provide the documented Population Mitotic Cells (%) with U2OS as the system for "N#Cc1cccc(C(=O)Nc2cc(-c3ccccc3)nn2-c2ccccc2)c1"
Reply text: 85

Inquiry: Missing value: Population Mitotic Cells (%), U2OS, entry Oc1cccc(-c2nc(N3CCOCC3)c3oc4ncccc4c3n2)c1 [PI-103] . Fill in?
Reply text: 25

Inquiry: Report Population Mitotic Cells (%) for NC(=O)c1ccc2nc(-c3ccc(C4(N)CCC4)cc3)c(-c3ccccc3)n2n1 [BAY-1125976] tested on U2OS.
Reply text: 55

Inquiry: Query the reported Population Mitotic Cells (%) for U2OS; item: "CN(c1cc(C(F)(F)F)nc(OCCC(=O)O)n1)c1cccc2c1CCC2"
Reply text: 0

Inquiry: Param readout= Population Mitotic Cells (%); system= U2OS; entry= CC[C@@H]1C(=O)N(C)c2cnc(Nc3ccc(C(=O)NC4CCN(C)CC4)cc3OC)nc2N1C1CCCC1 [BI-2536] ; returns value.
Reply text: 44

Inquiry: Fill in the recorded Population Mitotic Cells (%) for this compound, with U2OS as test system: CCOc1ccn(-c2ccc(F)cc2)c(=O)c1C(=O)Nc1ccc(Oc2ccnc(N)c2Cl)c(F)c1 [BMS-777607]
Reply text: 63

Inquiry: Entry "CC(C)c1cc(Nc2nc(N3CCC[C@H](N)C3)ncc2C(N)=O)cc(C(C)C)n1" , system U2OS: what Population Mitotic Cells (%) was measured?
Reply text: 73

Inquiry: Hello, I am looking for reported Population Mitotic Cells (%) with U2OS for CCCCCNC(=N)N/N=C/c1c[nH]c2ccc(OC)cc12.O=C(O)/C=C\C(=O)O [TEGASEROD MALEATE] . Could you help?
Reply text: 12

Inquiry: U2OS / Population Mitotic Cells (%) / "CCCCN(CC)c1nc(C)nc2c1c(C)cn2-c1c(C)cc(C)cc1C.Cl" : value?
Reply text: 70

Inquiry: Query Population Mitotic Cells (%) on U2OS for Cl.Cn1c2c(c3ccc(Cl)c(Cl)c31)C(C#N)C1(CCNCC1)NC2=O (configuration not stated)
Reply text: 25

Inquiry: Form field: Population Mitotic Cells (%) recorded for "Cc1ccc(S(=O)(=O)NC2c3ccccc3Oc3ccccc32)cc1" with U2OS (enter value)
Reply text: 75

Origin of the recorded values: ChEMBL document CHEMBL4689842
